assay_method_text: Dynamic vapor sorption (DVS) isotherm analysis, with XRPD before and after DVS
Assay type: physicochemical
recorded_conditions: at 80% RH
For each entry below, report its hygroscopicity by DVS isotherm analysis (uptake at 80% RH) value.
Give bare numbers, in %.

Sample records with hygroscopicity by DVS isotherm analysis (uptake at 80% RH):
- compound: "CCN1CCN(Cc2ccc(Nc3ncc(F)c(-c4cc(F)c5nc(C)n(C(C)C)c5c4)n3)nc2)CC1.Cl [1⋅HCl (1:1; Form A)]"
  unit_abbrev: "%"
  assay_result: 3.64
- compound: "CCN1CCN(Cc2ccc(Nc3ncc(F)c(-c4cc(F)c5nc(C)n(C(C)C)c5c4)n3)nc2)CC1.O=S(=O)(O)O [Compound 1⋅H2SO4 (1:1; Form A)]"
  unit_abbrev: "%"
  assay_result: 26.42

Batch of 3 compounds: report hygroscopicity by DVS isotherm analysis (uptake at 80% RH) for each.
1. CCN1CCN(Cc2ccc(Nc3ncc(F)c(-c4cc(F)c5nc(C)n(C(C)C)c5c4)n3)nc2)CC1.Cc1ccc(S(=O)(=O)O)cc1
2. CCN1CCN(Cc2ccc(Nc3ncc(F)c(-c4ccc5nn(C)c(C(C)C)c5c4)n3)nc2)CC1 [freebase of 1 (Form D)]
3. CCN1CCN(Cc2ccc(Nc3ncc(F)c(-c4cc(F)c5nc(C)n(C(C)C)c5c4)n3)nc2)CC1.O=P(O)(O)O [Compound 1⋅H3PO4 (1:1)]

a:
1.67
5.13
3.16
